experiment: qHTS for Inhibitors of Inflammasome Signaling: IL-1-beta AlphaLISA Primary Screen; settings: THP-1 LPS/ATP IL-1B secretion, 16 h; at 57.5 µM, active compounds read low; note: % is set by controls: 0 for no effect and ±100 for the full control effect
In all, about 360,000 compounds went through this assay and about 17,000 (4.7%) were called active. About 5% were inconclusive and are not listed. The entries come from a sample that favours actives as a whole.
// values below are reported activity change
Report the figure in % without appending any unit label.

COc1ccc(NC(=O)CC2SC(N3CCCCC3)=NC2=O)cc1OC (stereo not given): 3.71
COc1ccc(CCNC(=O)c2ccc(NC(=O)CC3SC(N4CCCCC4)=NC3=O)cc2)cc1OC (stereo not given): -53.6
O=C(CC1SC(N2CCCC2)=NC1=O)Nc1ccc(C(=O)NCCc2ccc(F)cc2)cc1 (stereo not given): 17.8
Cc1csc(=O)n1CCC(=O)OCC(=O)Nc1ccc(N2CCOCC2)cc1: 0
O=S1(=O)CC(N2CCN(CCO)CC2)CN1Cc1cn(Cc2cccc(Cl)c2)nn1 (stereo not given): 13.7

Query :: # return recorded activity change for input `Cc1ccc(S(=O)(=O)N(C)c2nc3ccccc3n3c(C(C)C)nnc23)cc1`
Result :: 9.42

Query :: # return recorded activity change for input Cc1ccc(-c2cnc(C(O)c3cccc(C)c3C)[nH]2)cc1 (stereo not given)
Result :: -19.2

Query :: # return recorded activity change for input COc1ccc(OC)c(C(=O)NC(CC(N)=O)c2ccc(N3CCC(N4CCCCC4)CC3)c([N+](=O)[O-])c2)c1 (stereo not given)
Result :: 13.4

Query :: # return recorded activity change for input COC1=CC(=O)OC(C)(c2ccccc2)C1 (stereo not given)
Result :: 9.74

Query :: # return recorded activity change for input `CCCc1ccc(S(=O)(=O)N2CCN(C(=O)c3cc(C)on3)CC2)cc1`
Result :: 21.7

---

experiment: qHTS for Inhibitors of Inflammasome Signaling: IL-1-beta AlphaLISA Primary Screen; conditions: THP-1 LPS/ATP IL-1B secretion, 16 h; at 57.5 µM, active compounds read low
Among all 360,000 compounds or so, about 17,000 (4.7%) were called active. About 5% were inconclusive and are not listed. The full list was thinned out, with actives kept by preference.
// values below are reported activity change
Report the figure in % without appending any unit label.

CN1CCN(C(=O)C2=C[C@H](c3ccc4c(c3)OCO4)C[C@H](OCc3ccc(CO)cc3)O2)CC1: -10.6
O=C(CN1C(=O)NC2(CCCCCC2)C1=O)NCc1ccc(F)cc1: -13.3
Cc1ccc2c(c1)C1CN(C)CCC1N2S(=O)(=O)c1cccc(F)c1 (stereo not given): -15.5
Cn1c(Nc2ccc(F)cc2)nc2cc(-c3ccsc3)sc2c1=O: 19.8
O=C(C1=C[C@H](c2coc3ccccc3c2=O)C[C@H](OCc2ccc(CO)cc2)O1)N1CCOCC1: -3.08

Query :: # return recorded activity change for input COCC(C)NC(=O)CSc1nc2nn(-c3ccccc3)c(=O)c-2c2n1CCCCC2 (stereo not given)
Result :: -2.5

Query :: # return recorded activity change for input `O=C(CN1C(=O)NC2(CCCCCCC2)C1=O)NCc1ccc(F)cc1`
Result :: -15.9

Query :: # return recorded activity change for input Cc1ccc2c(c1)C1CN(C)CCC1N2C(=O)c1ccccc1NS(=O)(=O)c1ccc(F)cc1C (stereo not given)
Result :: 5.7

Query :: # return recorded activity change for input `C[C@@H]1CN([C@@H](C)CO)S(=O)(=O)c2ccc(-c3ccc(C(=O)N(C)C)cc3)cc2O[C@@H]1CN(C)Cc1ccccc1C(=O)O`
Result :: 23.1

---

assay: qHTS for Inhibitors of Inflammasome Signaling: IL-1-beta AlphaLISA Primary Screen; settings: THP-1 LPS/ATP IL-1B secretion, 16 h; at 57.5 µM, active compounds read low
Out of some 360,000 compounds screened, about 17,000 (4.7%) were called active. About 5% were inconclusive and are not listed. The full list was thinned out, with actives kept by preference.
REPORTED ENDPOINT: activity change (%)
Report the figure in % without appending any unit label.

Here's what some known entries look like.
COc1cc(/C=N/n2c(C)n[nH]c2=S)ccc1OCc1ccccc1: 20.1
CCn1ccnc1CN(C)Cc1nc(-c2ccc3c(c2)OCO3)no1: 1.77
CCOC(=O)C1CCN(C(=O)c2ccc3c(=O)n4nc(Nc5ccccc5CC)sc4nc3c2)CC1: -8.29
CC(C)c1ccc(/C=C/C(=O)NCCCN2CCOCC2)cc1: -1.14
COC(=O)[C@]12CCCCC=C1N(CCC1=CCCCC1)C(=O)[C@H](CC(=O)N1CCSCC1)C2: -3.86
Cc1ccc(-n2cc(CN(C)Cc3nccn3C)c(-c3cccc(C)c3)n2)cc1: -85.3
O=C(NCc1cccnc1)c1cc(C2CCCN(C(=O)C3CCCCC3)C2)on1 (stereo not given): -24.1
O=C(COC(=O)C1CCCO1)Nc1nc(-c2ccc(F)cc2)cs1 (stereo not given): -13.3

Query :: # return recorded activity change for input `CCc1ccccc1OCC(=O)Nc1ccc2c(c1)OCCO2`
Result :: -6.79

Query :: # return recorded activity change for input `NC(=S)NN=Cc1ccc(OC(=O)COc2cc(Cl)c(Cl)cc2Cl)cn1`
Result :: 119

Query :: # return recorded activity change for input `CCN(C[C@H]1N[C@@](CC)(C(=O)OC)[C@H]2C(=O)N(Cc3ccccc3)C(=O)[C@@H]12)S(=O)(=O)c1ccccc1`
Result :: -2.92

Query :: # return recorded activity change for input `CCOC(=O)[C@]12CCCC=C1N(Cc1ccc(Cl)cc1Cl)C(=O)[C@H](CC(=O)N1CCCCC1)C2`
Result :: -12.7

Query :: # return recorded activity change for input COc1ccc(-c2ccc(CN3C(CC(C)C)C(=O)N(Cc4cn(CC5CCCCC5)nn4)CCS3(=O)=O)cc2)cn1 (stereo not given)
Result :: -12.3

Query :: # return recorded activity change for input CC1CCCC(C)N1C(=O)CN1CCN(c2nc(-c3ccc(F)cc3)cs2)CC1 (stereo not given)
Result :: -52.3

Query :: # return recorded activity change for input `Cc1ccc(-n2cnc3ncnc(-c4ccccc4)c32)cc1`
Result :: -9.14

Query :: # return recorded activity change for input `CCNC(=O)N(CC)C[C@H]1N[C@@](CC)(C(=O)OC)[C@H]2C(=O)N(Cc3ccccc3)C(=O)[C@@H]12`
Result :: 36

Query :: # return recorded activity change for input `Cc1ccc(-c2cc(C(=O)NC3CCN(Cc4ccccc4)CC3)c3ccccc3n2)cc1`
Result :: -4.22

Query :: # return recorded activity change for input CSc1ncccc1C(=O)N1CCCC(Nc2ccc(F)c(F)c2)C1 (stereo not given)
Result :: 43.2

Query :: # return recorded activity change for input O=C(NCc1ccccc1)C1c2ccccc2OCC(=O)N1C1CC1 (stereo not given)
Result :: -1.49

Query :: # return recorded activity change for input `CCN(C[C@H]1N[C@@](Cc2ccccc2)(C(=O)OC)[C@H]2C(=O)N(Cc3ccccc3)C(=O)[C@@H]12)C(=O)c1ccc(C)cc1`
Result :: -54.1

---

experiment: qHTS for Inhibitors of Inflammasome Signaling: IL-1-beta AlphaLISA Primary Screen; details: THP-1 LPS/ATP IL-1B secretion, 16 h; at 57.5 µM, active compounds read low
Out of some 360,000 compounds screened, about 17,000 (4.7%) were called active. About 5% were inconclusive and are not listed. What follows is part of a selection rich in actives, with near analogues and random picks from the rest.
// values below are reported activity change

Here's what some known entries look like.
CC(=O)N1CCN(CC(=O)Nc2ccc(SC(F)F)cc2)CC1: 8.74% (inactive)
Cc1ccc(CC(=O)Nc2ccc(OC(F)F)c(Cl)c2)cc1C: 2.16% (inactive)
O=S1(=O)C[C@@H](N2CCN(CCO)CC2)[C@H](COCc2ccccc2)N1: -19.7% (inactive)
O=C(NCC1CCCCC1)NCC1CCCCC1: 5.16% (inactive)
O=C(Cc1ccc(Cl)c(Cl)c1)Nc1ccc(SC(F)F)cc1: -96% (active)

Then this compound:
Query :: # return recorded activity change for input `CC(C)[C@H](NC(=O)c1ccccc1F)C(=O)Nc1cccc(S(=O)(=O)N2CCOCC2)c1`
Result :: 13.4% (inactive)

---

assay: qHTS for Inhibitors of Inflammasome Signaling: IL-1-beta AlphaLISA Primary Screen; settings: THP-1 LPS/ATP IL-1B secretion, 16 h; at 57.5 µM, active compounds read low
The campaign covered roughly 360,000 compounds. About 17,000 (4.7%) were called active. Another 5% or so got no clear call; they are omitted. Only a selection was taken, and actives are over-represented in it overall.
REPORTED ENDPOINT: activity change

CNc1cncc(-c2cccc(C(=O)N3CCOCC3)c2)n1: -12.2% (inactive)
Cc1ccc(-c2ccc(C3=CC(=O)CC(C)(C)C3=O)cc2)cc1: -18.9% (inactive)
COc1cccc(-c2cnc3c(NC(C)=O)cc(-c4cc(F)ccc4OC)cn23)c1: -11.1% (inactive)

Query :: # return recorded activity change for input CCOC(=O)C(C)n1cnc2scc(-c3ccc(C)c(C)c3)c2c1=O (stereo unspecified)
Result :: -7.25% (inactive)

Query :: # return recorded activity change for input `CC1(C)C=Cc2c(ccc3c2OC[C@@H](c2ccc(O)cc2O)C3)O1`
Result :: -13.2% (inactive)

Query :: # return recorded activity change for input COc1cccc(C(O)c2ncc(-c3ccc4ccccc4c3)[nH]2)c1 (stereo unspecified)
Result :: 18.2% (inactive)
